Data origin: patent US20250154226A1

molecular target: glucagon-like peptide-1 (GLP-1) receptor
Starred links: 1 amine or outer side, 2 acyl side, 3 side chain; linkers in the order of their positions; H or OH if unused. Non-standard residues stand in square brackets, D forms with d. Groups on a side chain read outwards from the residue. No end group written: not given here. *: point of attachment. C18 diacid = O=C(O)CCCCCCCCCCCCCCCCC(=O)*; γGlu = O=C(O)[C@H](CCC(=O)[*:2])N[*:1]; Aib = CC(C)(N)C(=O)O
The binders listed here are annotated with their GLP-1 activity [EC50 (pmol)].
Give the value in pmol but do not write pmol after it.

Some solved cases for reference:
H[Aib]EGSFTSELATILDK([PEG4CH2CO-γGlu-C18 diacid])QAARDFIAWLIQHKITD-NH2 [Compound 5] ... 72.8
H[Aib]EGSFTSELATILDK([PEG3CH2CO-γGlu-C18 diacid])QAARDFIAWLIQHKITD-NH2 [Compound 4] ... 60

[Q] Give its GLP-1 activity [EC50 (pmol)] value. Item: H[Aib]EGSFTSELATILDK([PEG1CH2CO-γGlu-C18 diacid])QAARDFIAWLIQHKITD-NH2 [Compound 2]
[A] 68.7

[Q] Cool, now H[Aib]EGSFTSELATILDK([PEG5CH2CO-γGlu-C18 diacid])QAARDFIAWLIQHKITD-NH2 [Compound 6]
[A] 79.5
